Tested on: RERF-LC-KJ
Experiment: relative viability (nuclei count vs DMSO), 5 days (fraction); higher = more cells survive
Settings: first compound 8 µM
assay endpoint: relative viability
Number only, no unit.

The value of relative viability measured for the compound CCCCCCCCCCCC1=C(O)C(=O)C=C(O)C1=O [Embelin] + CCNC(=O)c1noc(-c2cc(C(C)C)c(O)cc2O)c1-c1ccc(CN2CCOCC2)cc1 [Luminespib] (partner 0.01 µM) turned out to be 0.55

The value of relative viability measured for the compound CCCCCCCCCCCC1=C(O)C(=O)C=C(O)C1=O [Embelin] + COc1cccc2cc(-c3nc([C@H]4CC[C@H](C(=O)O)CC4)n4ncnc(N)c34)[nH]c12 [OSI-027] (partner 0.5 µM) turned out to be 0.494

The value of relative viability measured for the compound CCCCCCCCCCCC1=C(O)C(=O)C=C(O)C1=O [Embelin] + Nc1ncn([C@H]2C[C@H](O)[C@@H](CO)O2)c(=O)n1 [Decitabine] (partner 2 µM) turned out to be 0.514

* * *

Test system: LC-2-ad
Assay: relative viability (nuclei count vs DMSO), 5 days (fraction); higher = more cells survive
Conditions: first compound 4 µM
Please go through the items and note down their relative viability.
Number only, no unit.

The value of relative viability measured for the molecule C[C@@H]1CN(CC(=O)Nc2ccc3c(c2)Cc2cccc(-c4cc(=O)cc(N5CCOCC5)o4)c2S3)C[C@H](C)O1 + Nc1nc2[nH]cc(CCc3ccc(C(=O)N[C@@H](CCC(=O)O)C(=O)O)cc3)c2c(=O)[nH]1 [Pemetrexed] (partner 0.2 µM) turned out to be 0.249

The value of relative viability measured for the molecule COc1cc(N2CCC(C(N)=O)CC2)ccc1Nc1nc(N)c(Cl)c(Nc2ccccc2S(=O)(=O)C(C)C)n1 [HG-5-88-01] + Cc1cc(Nc2cc(N3CCN(C)CC3)nc(Sc3ccc(NC(=O)C4CC4)cc3)n2)n[nH]1 [Tozasertib] (partner 0.1 µM) turned out to be 0.255

The value of relative viability measured for the molecule COc1cc(N2CCC(C(N)=O)CC2)ccc1Nc1nc(N)c(Cl)c(Nc2ccccc2S(=O)(=O)C(C)C)n1 [HG-5-88-01] + CC(=O)c1c(C)c2cnc(Nc3ccc(N4CCNCC4)cn3)nc2n(C2CCCC2)c1=O [Palbociclib] (partner 0.5 µM) turned out to be 0.516

The value of relative viability measured for the molecule C[C@@H]1CN(CC(=O)Nc2ccc3c(c2)Cc2cccc(-c4cc(=O)cc(N5CCOCC5)o4)c2S3)C[C@H](C)O1 + Cc1nc(Nc2ncc(C(=O)Nc3c(C)cccc3Cl)s2)cc(N2CCN(CCO)CC2)n1 [Dasatinib] (partner 0.075 µM) turned out to be 0.492

The value of relative viability measured for the molecule C[C@@H]1CN(CC(=O)Nc2ccc3c(c2)Cc2cccc(-c4cc(=O)cc(N5CCOCC5)o4)c2S3)C[C@H](C)O1 + O=C(c1cc(Cc2n[nH]c(=O)c3ccccc23)ccc1F)N1CCN(C(=O)C2CC2)CC1 [Olaparib] (partner 8 µM) turned out to be 0.433

* * *

System: COR-L23
Assay: relative viability (nuclei count vs DMSO), 5 days (fraction); higher = more cells survive
Conditions: first compound 0.04 µM
assay endpoint: relative viability
Number only, no unit.

relative viability of Clc1ccc(Nc2nnc(Cc3ccncc3)c3ccccc23)cc1 [Vatalanib] + COc1cc2c(Oc3ccc(NC(=O)C4(C(=O)Nc5ccc(F)cc5)CC4)cc3F)ccnc2cc1OCCCN1CCOCC1 [Foretinib] (partner 0.25 µM) , assay on COR-L23, is 1.08

relative viability of Clc1ccc(Nc2nnc(Cc3ccncc3)c3ccccc23)cc1 [Vatalanib] + Nc1nc2[nH]cc(CCc3ccc(C(=O)N[C@@H](CCC(=O)O)C(=O)O)cc3)c2c(=O)[nH]1 [Pemetrexed] (partner 0.2 µM) , assay on COR-L23, is 0.204

relative viability of Clc1ccc(Nc2nnc(Cc3ccncc3)c3ccccc23)cc1 [Vatalanib] + O=C(CCCCCCC(=O)Nc1ccccc1)NO [Vorinostat] (partner 1 µM) , assay on COR-L23, is 0.356

relative viability of COc1cc(N2CCC(C(N)=O)CC2)ccc1Nc1nc(N)c(Cl)c(Nc2ccccc2S(=O)(=O)C(C)C)n1 [HG-5-88-01] + C[C@@H](Oc1cc(-c2cnn(C3CCNCC3)c2)cnc1N)c1c(Cl)ccc(F)c1Cl [Crizotinib] (partner 1 µM) , assay on COR-L23, is 0.651

* * *

System: NCI-H520
Assay: relative viability (nuclei count vs DMSO), 5 days (fraction); higher = more cells survive
Details: first compound 4 µM
Please go through the items and note down their relative viability.
Number only, no unit.

The value of relative viability measured for the compound C[C@@H]1CN(CC(=O)Nc2ccc3c(c2)Cc2cccc(-c4cc(=O)cc(N5CCOCC5)o4)c2S3)C[C@H](C)O1 + CC(C)C[C@H](NC(=O)[C@H](Cc1ccccc1)NC(=O)c1cnccn1)B(O)O [Bortezomib] (partner 0.002 µM) turned out to be 0.584

The value of relative viability measured for the compound COc1cc(N2CCC(C(N)=O)CC2)ccc1Nc1nc(N)c(Cl)c(Nc2ccccc2S(=O)(=O)C(C)C)n1 [HG-5-88-01] + Cc1nc(NC(=O)N2CCC[C@H]2C(N)=O)sc1-c1ccnc(C(C)(C)C(F)(F)F)c1 [Alpelisib] (partner 2 µM) turned out to be 1.03

The value of relative viability measured for the compound C[C@@H]1CN(CC(=O)Nc2ccc3c(c2)Cc2cccc(-c4cc(=O)cc(N5CCOCC5)o4)c2S3)C[C@H](C)O1 + COc1cccc2cc(-c3nc([C@H]4CC[C@H](C(=O)O)CC4)n4ncnc(N)c34)[nH]c12 [OSI-027] (partner 0.5 µM) turned out to be 0.264

The value of relative viability measured for the compound C[C@@H]1CN(CC(=O)Nc2ccc3c(c2)Cc2cccc(-c4cc(=O)cc(N5CCOCC5)o4)c2S3)C[C@H](C)O1 + CS(=O)(=O)N1CCN(Cc2cc3nc(-c4cccc5[nH]ncc45)nc(N4CCOCC4)c3s2)CC1 [Pictilisib] (partner 1 µM) turned out to be 0.374

The value of relative viability measured for the compound Clc1ccc(Nc2nnc(Cc3ccncc3)c3ccccc23)cc1 [Vatalanib] + CCNC(=O)c1noc(-c2cc(C(C)C)c(O)cc2O)c1-c1ccc(CN2CCOCC2)cc1 [Luminespib] (partner 0.01 µM) turned out to be 0.246

The value of relative viability measured for the compound Clc1ccc(Nc2nnc(Cc3ccncc3)c3ccccc23)cc1 [Vatalanib] + Nc1nc2[nH]cc(CCc3ccc(C(=O)N[C@@H](CCC(=O)O)C(=O)O)cc3)c2c(=O)[nH]1 [Pemetrexed] (partner 0.2 µM) turned out to be 0.62

The value of relative viability measured for the compound COc1cc(N2CCC(C(N)=O)CC2)ccc1Nc1nc(N)c(Cl)c(Nc2ccccc2S(=O)(=O)C(C)C)n1 [HG-5-88-01] + CC(=O)c1c(C)c2cnc(Nc3ccc(N4CCNCC4)cn3)nc2n(C2CCCC2)c1=O [Palbociclib] (partner 0.5 µM) turned out to be 0.232

The value of relative viability measured for the compound Clc1ccc(Nc2nnc(Cc3ccncc3)c3ccccc23)cc1 [Vatalanib] + Nc1ncn([C@H]2C[C@H](O)[C@@H](CO)O2)c(=O)n1 [Decitabine] (partner 2 µM) turned out to be 0.529

The value of relative viability measured for the compound Clc1ccc(Nc2nnc(Cc3ccncc3)c3ccccc23)cc1 [Vatalanib] + C[C@]1(O)C[C@@H](c2nc(-c3ccc4ccc(-c5ccccc5)nc4c3)c3c(N)nccn32)C1 [Linsitinib] (partner 1 µM) turned out to be 0.989

The value of relative viability measured for the compound Clc1ccc(Nc2nnc(Cc3ccncc3)c3ccccc23)cc1 [Vatalanib] + Cc1nc(Nc2ncc(C(=O)Nc3c(C)cccc3Cl)s2)cc(N2CCN(CCO)CC2)n1 [Dasatinib] (partner 0.075 µM) turned out to be 0.126

The value of relative viability measured for the compound C[C@@H]1CN(CC(=O)Nc2ccc3c(c2)Cc2cccc(-c4cc(=O)cc(N5CCOCC5)o4)c2S3)C[C@H](C)O1 + CC1(C)CCC(c2ccc(Cl)cc2)=C(CN2CCN(c3ccc(C(=O)NS(=O)(=O)c4ccc(N[C@H](CCN5CCOCC5)CSc5ccccc5)c(S(=O)(=O)C(F)(F)F)c4)cc3)CC2)C1 [Navitoclax] (partner 0.5 µM) turned out to be 1.08

The value of relative viability measured for the compound COc1cc(N2CCC(C(N)=O)CC2)ccc1Nc1nc(N)c(Cl)c(Nc2ccccc2S(=O)(=O)C(C)C)n1 [HG-5-88-01] + C[C@@H](Oc1cc(-c2cnn(C3CCNCC3)c2)cnc1N)c1c(Cl)ccc(F)c1Cl [Crizotinib] (partner 1 µM) turned out to be 0.663

The value of relative viability measured for the compound COc1cc(N2CCC(C(N)=O)CC2)ccc1Nc1nc(N)c(Cl)c(Nc2ccccc2S(=O)(=O)C(C)C)n1 [HG-5-88-01] + CCNC(=O)c1noc(-c2cc(C(C)C)c(O)cc2O)c1-c1ccc(CN2CCOCC2)cc1 [Luminespib] (partner 0.01 µM) turned out to be 0.247

The value of relative viability measured for the compound COc1cc(N2CCC(C(N)=O)CC2)ccc1Nc1nc(N)c(Cl)c(Nc2ccccc2S(=O)(=O)C(C)C)n1 [HG-5-88-01] + Cc1nc(Nc2ncc(C(=O)Nc3c(C)cccc3Cl)s2)cc(N2CCN(CCO)CC2)n1 [Dasatinib] (partner 0.075 µM) turned out to be 0.2

The value of relative viability measured for the compound Clc1ccc(Nc2nnc(Cc3ccncc3)c3ccccc23)cc1 [Vatalanib] + O=C(c1cc(Cc2n[nH]c(=O)c3ccccc23)ccc1F)N1CCN(C(=O)C2CC2)CC1 [Olaparib] (partner 8 µM) turned out to be 0.34
